Kindly state pEC50 for each of the entries shown.
- targetOfAssay: T1, VEGF165 (UniProt P15692 27-191)
- T1 chain: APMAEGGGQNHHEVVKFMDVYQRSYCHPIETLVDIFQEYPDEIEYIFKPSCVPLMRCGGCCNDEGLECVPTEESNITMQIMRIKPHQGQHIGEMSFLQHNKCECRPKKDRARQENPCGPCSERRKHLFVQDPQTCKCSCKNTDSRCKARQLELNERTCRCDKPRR
- measurementNotes: competitive VEGF ELISA; panel A
Lab note: report pEC50 as minus log10 of the concentration in molar units, number only.

Need pEC50, item sFLT01 (D2-9Gly-Fc) (Fc fusion) RPFVEMYSEIPEIIHMTEGRELVIPCRVTSPNITVTLKKFPLDTLIPDGKRIIWDSRKGFIISNATYKEIGLLTCEATVNGHLYKTNYLTHRQTGGGGGGGGG 11.33

Need pEC50, item PEG-linked D2 dimer, 2 kDa linker (receptor, free cysteine of partially-reduced monomer coupled to a homobifunctional PEG linker of 2 kDa) RPFVEMYSEIPEIIHMTEGRELVIPCRVTSPNITVTLKKFPLDTLIPDGKRIIWDSRKGFIISNATYKEIGLLTCEATVNGHLYKTNYLTHRQT 11.24

Need pEC50, item Four-arm D2 tetramer linked with 4-arm PEG of 10 kDa (receptor, free cysteine coupled to a 4-arm 10 kDa PEG) RPFVEMYSEIPEIIHMTEGRELVIPCRVTSPNITVTLKKFPLDTLIPDGKRIIWDSRKGFIISNATYKEIGLLTCEATVNGHLYKTNYLTHRQT 11.43

Need pEC50, item Four-arm D2 tetramer linked with 4-arm PEG of 20 kDa (receptor, free cysteine coupled to a 4-arm 20 kDa maleimide PEG) RPFVEMYSEIPEIIHMTEGRELVIPCRVTSPNITVTLKKFPLDTLIPDGKRIIWDSRKGFIISNATYKEIGLLTCEATVNGHLYKTNYLTHRQT 11.32
